Test system: SK-OV-3 ovarian
assay explanation: NCI-60 one-dose screen, 48 h
measurement context: 10 µM unless noted
Compounds without any hit were thinned out: in the full panel of roughly 83,000, 20% have a hit. Calls of active or inactive are those of the source. How the source made its calls: active means growth percent below 10; inactive means the rest.
Outcomes: active, inactive

compound	answer label
O=C1C(Cl)=C(Nc2ccc(S(=O)(=O)c3ccc(NC4=C(Cl)C(=O)c5ccccc5C4=O)cc3)cc2)C(=O)c2ccccc21	inactive
CCN1CCN(C(=O)[C@@]2(C)CC[C@]3(C)CC[C@]4(C)C(=CC(=O)[C@@H]5[C@@]6(C)CC[C@H](OC7C[C@@H](O)[C@@H](O)C(C)O7)C(C)(C)[C@@H]6CC[C@]54C)[C@@H]3C2)CC1 (stereo partly drawn)	inactive
CC1(C)[C@@H](O)CC[C@]2(C)[C@H]3CC[C@@H]4[C@H]5[C@H](C(=O)/C=C/c6ccc(C(F)(F)F)cc6)CC[C@]5(CO)CC[C@@]4(C)[C@]3(C)CC[C@@H]12	inactive
Nc1c(C(=O)Nc2cccc3ccccc23)sc2nc3c(cc12)CCCC3	inactive
Nc1nc2c3ccncc3cc(-c3cccc(Cl)c3)c2c2cnccc12	inactive
COc1ccc2c(c1)C/C(=C\c1cc(-c3cc(OC)c(OC)c(OC)c3)n[nH]1)C2=O	inactive
CCc1nnc(NC(=O)c2ccoc2COc2ccccc2)s1	inactive
COc1ccc(OC)c(-c2c(C#N)c(-c3ccco3)nc3c2c(-c2ccccc2)nn3-c2ccccc2)c1	inactive
CCN(CC)CCCCCCNc1ccnc2cc(Cl)ccc12	inactive
CC(C)=CCC[C@](C)(O)[C@H]1CC[C@]2(C)[C@@H]1CC[C@@H]1[C@@]3(C)C/C(=C/c4ccc(Br)cc4)C(=O)C(C)(C)[C@@H]3CC[C@]12C	inactive
CCCCCCCC(=O)SCC/C=C/[C@@H]1CC(=O)NCc2cccc(n2)CN(Cc2ccc(Cl)cc2)CC(=O)N[C@@H](C(C)C)C(=O)O1	active
COc1cccc2c1C(=O)c1c(O)c3c(c(O)c1C2=O)C[C@@](O)(C(=O)CO)C[C@@H]3OC1C[C@H](N)[C@H](O)[C@H](C)O1 (stereo partly drawn)	active
C=COCCCCCCCCCCCCCCCCCC	inactive
O=C1C(=O)N(CCCCn2cc(-c3ccccc3)nn2)c2ccccc21	inactive
COc1cccc(-c2nn(-c3ccccc3)cc2-c2ccnc(NCCNS(=O)(=O)c3ccc(Cl)cc3)c2)c1	inactive
C[C@H]1OC(=O)/C=C/[C@@H](O)[C@@H](O)CCCCCCCC[C@@H]1O	inactive
Cc1ccc(N(CC(=O)Nc2ccc(S(=O)(=O)N3CCC(N4CCCC4)CC3)cc2)S(=O)(=O)c2ccc(Cl)cc2)cc1	inactive
CC(=O)OCCCCCCn1c2ccccc2c2c3c(c4c5ccccc5n(C)c4c21)C(=O)N(O)C3=O	inactive

====

Reported values of growth for individual entries
System: A498 renal
assay explanation: NCI-60 one-dose screen, 48 h (100 = growth as untreated, 0 = no growth, -100 = all killed)
measurement context: 10 µM unless noted
Experimental: Growth inhibition of the A498 human tumor cell line is measured as a screen for anti-cancer activity. Cells are grown in 96 well plates and exposed to the test compound for 48 hours. Compounds are tested at a single concentration, which is 10^-5 M for most compounds. The reported endpoint is percent growth (GI% or GIPRCNT), where numbers from 0 - 100% represent growth inhibition, and numbers from -100% - 0 represent cell death. For example, a value of 40 represents 60% growth inhibition. […]
This is part of a sample that, as a whole, favours compounds with a hit. Of some 83,000 tested, about 20% had one in any assay.

compound	scale unit	growth
O=C(NO)c1ccc(Cn2c(=O)n(CCc3ccc(O)cc3)c(=O)c3ccccc32)cc1	%	45.7
O=C1NC(=Nc2ccc(S(=O)(=O)Nc3nccs3)cc2)S/C1=C\c1coc2ccccc2c1=O	%	101
N#CC1C(=N)Cc2ccccc2-c2ccccc21 (configuration not stated)	%	55.3
COc1cc2c3c(c4c5ccccc5[nH]c4c2c(OC)c1OC)C(=O)N(O)C3=O	%	-16.8
C=C(C)[C@@H]1CC[C@]2(C(=O)O)CC[C@]3(C)[C@H](CC[C@@H]4[C@@]5(C)C/C(=C/c6ccc(OC)cc6)C(=O)C(C)(C)[C@@H]5CC[C@]43C)[C@@H]12	%	49.6
CC(C)(C)c1cc(-n2c(-c3ccc(Cl)cc3)nc3cc(C(=O)Nc4ccc(Cl)cc4)ccc32)n[nH]1	%	48
Fc1ccc(Nc2nc(Nc3ccc(-c4nc5ccccc5[nH]4)cc3)nc(N3CCCC3)n2)cc1	%	75.3
C=C(C)[C@@H]1CC[C@]2(C)CC[C@]3(C)[C@H](CC[C@@H]4[C@@]5(C)CCCNC(C)(C)[C@@H]5CC[C@]43C)[C@@H]12	%	79.7
CC(=O)O[C@H]1CC[C@@]2(C)C(=CC[C@@H]3[C@@H]2CC[C@]2(C)C(=O)N(O)C(=O)C[C@@H]32)C1	%	92.7
CC1(C)CC[C@]2(C(=O)Nc3ccccn3)CC[C@]3(C)C(=CC[C@@H]4[C@@]5(C)C/C(=C/c6ccncc6)C(=O)C(C)(C)[C@@H]5CC[C@]43C)[C@@H]2C1	%	-17.2
COc1ccc(OC)c(-c2c(C#N)c(-c3ccco3)nc3c2c(-c2ccccc2)nn3-c2ccccc2)c1	%	98.5
O=C1c2ccccc2NC(c2cn(-c3ccccc3)nc2-c2cccnc2)N1Cc1ccccc1 (configuration not stated)	%	92
